# CC50 annotations
# Tested on: Huh 7 cells
# setup-conditions: concentration of 50% cellular toxicity in Huh 7 cells
Give just the number in µM; leave the unit off.

Briefly, CC50 measured for O=C(CNc1ccc(Cl)c(Cl)c1)N1CCCC2=CC3CC(C4CCCCN4C3)C21 (stereo not drawn) [14l] : 63

Memo: O=C(CNc1ccc(Br)cc1)N1CCCC2=CC3CC(CN4CCCCC34)C21 (stereo not drawn) [14e] , reported CC50: 180

The recorded CC50 for entry O=C(CN1CCCC2=CC3CC(C4CCCCN4C3)C21)Nc1ccc(Cl)cc1Cl (stereo not drawn) [11d] equals 167

Sample O=C(CN1CCCC2=CC3CC(CN4CCCCC34)C21)Nc1ccc(I)cc1 (stereo not drawn) [11c] ; CC50 observed: 124

Record O=C(CNc1ccc(Cl)cc1Cl)N1CCCC2=CC3CC(CN4CCCCC34)C21 (stereo not drawn) [14k] , field CC50: 65.8

CC50 reading for O=C(CNc1cc(C(F)(F)F)cc(C(F)(F)F)c1)N1CCCC2=CC3CC(CN4CCCCC34)C21 (stereo not drawn) [14o] : 113

Reported CC50 ( O=C(CN1CCCC2=CC3CC(CN4CCCCC34)C21)Nc1cc(C(F)(F)F)cc(C(F)(F)F)c1 (stereo not drawn) [11o] ) = 71

Form field CC50, entry O=C(CNc1cccc2ccccc12)N1CCCC2=CC3CC(C4CCCCN4C3)C21 (stereo not drawn) [14p] : 199

Recorded CC50 (compound O=C(CN1CCCC2=CC3CC(C4CCCCN4C3)C21)Nc1cc(Cl)cc(C(F)(F)F)c1 (stereo not drawn) [11k] ): 57.1

We next turn to a different compound, shown below.
Entry under test: O=C(CNc1ccc2ccccc2c1)N1CCCC2=CC3CC(CN4CCCCC34)C21 (stereo not drawn) [14q, 12N-N′-(2-Naphthylamino)acetyl aloperine] . Its CC50 was 224

----------
# System: Huh 7 cells
# setup-conditions: concentration of 50% cellular toxicity in Huh 7 cells
Items are presented alongside their recorded CC50.

For reference, reported CC50 for COc1cccc(NCC(=O)N2CCCC3=CC4CC(C5CCCCN5C4)C32)c1 (stereo not shown) [14i] stands at > 267 µM

Looking up O=C(CNc1ccc(F)cc1)N1CCCC2=CC3CC(CN4CCCCC34)C21 (stereo not shown) [14b] , I see its CC50 listed as > 267 µM

Query O=C(CN1CCCC2=CC3CC(C4CCCCN4C3)C21)Nc1ccc2ccccc2c1 (stereo not shown) [11p] yields CC50 of 96.7 µM

Value of measured CC50 for the entry O=C(Nc1cc(C(F)(F)F)cc(C(F)(F)F)c1)N1CCCC2=CC3CC(CN4CCCCC34)C21 (stereo not shown) [15c] : 53.9 µM

Sample O=C(CNc1ccccc1)N1CCCC2=CC3CC(CN4CCCCC34)C21 (stereo not shown) [14a, 12N-N′-Phenylaminoacetyl aloperine] ; CC50 observed: > 267 µM

The recorded CC50 for O=C(CN1CCCC2=CC3CC(C4CCCCN4C3)C21)Nc1cc(Br)ccc1Cl (stereo not shown) [11g] is > 267 µM

Consider the record given below.
The compound CCCNC(=O)[C@H]1O[C@@H]1C(=O)N[C@H](C(=O)N1CCC[C@H]1C(=O)O)[C@@H](C)CC [CA-074, reference compound] showed CC50 equal to 231 µM
